# credit: the supplement of paper PMC5844555

Test system: RB1
assay protocol: 3' UTR reporter interaction score (median-centred robust z-score of log2 firefly/Renilla activity); higher = less repression of the 3' UTR reporter
details: HEK293T; 48 h
Label scheme for 3' UTR reporter interaction score: lower than -0.06 is not met, -0.06 and above is met.

Worked examples, 10 sequences total:
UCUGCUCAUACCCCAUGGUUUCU	met
CUCCAGAGGGAAGUACUUUCU	not met
UAAGGUGCAUCUAGUGCAGUUA	not met
UCCGAGCCUGGGUCUCCCUCU	met
GUUGUGUCAGUUUAUCAAAC	not met
UGGAGAGAAAGGCAGUUC	met
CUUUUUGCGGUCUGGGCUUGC	not met
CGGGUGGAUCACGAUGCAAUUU	met
UUGGCCACAAUGGGUUAGAAC	met
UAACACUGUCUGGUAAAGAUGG	met

API: above_or_equal(metric=3' UTR reporter interaction score, cutoff=-0.06) for item CCUCUAGAUGGAAGCACUGUCU
met

API: above_or_equal(metric=3' UTR reporter interaction score, cutoff=-0.06) for item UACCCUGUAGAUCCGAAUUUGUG
met

API: above_or_equal(metric=3' UTR reporter interaction score, cutoff=-0.06) for item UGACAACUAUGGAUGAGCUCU
not met

API: above_or_equal(metric=3' UTR reporter interaction score, cutoff=-0.06) for item UACAGUAGUCUGCACAUUGGUU
met

API: above_or_equal(metric=3' UTR reporter interaction score, cutoff=-0.06) for item CCACACCGUAUCUGACACUUU
met

API: above_or_equal(metric=3' UTR reporter interaction score, cutoff=-0.06) for item CUUCUUGUGCUCUAGGAUUGU
met

API: above_or_equal(metric=3' UTR reporter interaction score, cutoff=-0.06) for item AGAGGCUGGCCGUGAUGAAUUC
not met

API: above_or_equal(metric=3' UTR reporter interaction score, cutoff=-0.06) for item CAUUAUUACUUUUGGUACGCG
met

API: above_or_equal(metric=3' UTR reporter interaction score, cutoff=-0.06) for item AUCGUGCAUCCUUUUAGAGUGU
met

API: above_or_equal(metric=3' UTR reporter interaction score, cutoff=-0.06) for item UUCAAGUAAUCCAGGAUAGGC
not met

API: above_or_equal(metric=3' UTR reporter interaction score, cutoff=-0.06) for item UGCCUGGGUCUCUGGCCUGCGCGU
not met

API: above_or_equal(metric=3' UTR reporter interaction score, cutoff=-0.06) for item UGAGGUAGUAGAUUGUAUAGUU
met

API: above_or_equal(metric=3' UTR reporter interaction score, cutoff=-0.06) for item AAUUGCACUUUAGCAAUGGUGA
met

API: above_or_equal(metric=3' UTR reporter interaction score, cutoff=-0.06) for item CAAAACUGGCAAUUACUUUUGC
met

API: above_or_equal(metric=3' UTR reporter interaction score, cutoff=-0.06) for item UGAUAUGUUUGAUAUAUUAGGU
not met

API: above_or_equal(metric=3' UTR reporter interaction score, cutoff=-0.06) for item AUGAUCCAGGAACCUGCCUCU
not met

API: above_or_equal(metric=3' UTR reporter interaction score, cutoff=-0.06) for item ACUUACAGACAAGAGCCUUGCUC
not met

API: above_or_equal(metric=3' UTR reporter interaction score, cutoff=-0.06) for item GGCUAGCAACAGCGCUUACCU
met

API: above_or_equal(metric=3' UTR reporter interaction score, cutoff=-0.06) for item AAGUGCUUCCUUUUAGAGGGUU
met

API: above_or_equal(metric=3' UTR reporter interaction score, cutoff=-0.06) for item GGCAAGAUGCUGGCAUAGCUG
met

API: above_or_equal(metric=3' UTR reporter interaction score, cutoff=-0.06) for item AUGGAGAUAGAUAUAGAAAU
not met

API: above_or_equal(metric=3' UTR reporter interaction score, cutoff=-0.06) for item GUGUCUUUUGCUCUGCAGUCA
met
